test system: Plasmodium falciparum NF54 gametocytes; test: viability index relative to DMSO control (fraction); higher = less gametocyte killing; settings: gametocyte stage: Stage IV viability index; 12.5 µM; incubation time: 72 h
recorded_endpoint: viability index

* COc1cccc(Nc2nc(N)c3ccccc3n2)c1 | 0.797
* FC(F)(F)c1cccc(Nc2nc3ccccc3nc2Nc2cccc(C(F)(F)F)c2)c1 | 0.00633
* Nc1ccn(C2O[C@H](CO)[C@@H](O)[C@H]2O)c(=O)n1 (some centres not stated) | 1.07
* CCOC(=O)c1ccc2nc(-c3ccccc3)cc(O)c2c1 | 0.757
* Cc1ccc(-c2cc3c(nn2)-c2ccccc2C3=O)cc1 | 0.897
* O=C(Nc1ccc(N2CCN(Cc3ccccc3)CC2)cc1)c1cccs1 | 0.875
* Nc1ccc(-c2nc3cc(Cc4ccc5[nH]c(-c6ccc(N)cc6)nc5c4)ccc3[nH]2)cc1 | 0.0127
* Fc1ccc2[nH]c3c(NCCCN4CCOCC4)ncnc3c2c1 | 0.866
* COc1cccc(O)c1CN1CCC2(CCCN(Cc3ccc(F)cc3)C2)C1 (configuration not stated) | 0.602
* CC1CC2=C(CC1CNCCCN(C)C)C(C)(C)CCC2 (configuration not stated) | 0.468
* CCn1c2c(c(=N)c3c1CCC3)CCCC2 | 0.962
* OC(CNC1CCCCC1)Cn1c2ccc(I)cc2c2cc(I)ccc21 (configuration not stated) | 0.168
* O=C(NC1CCN(Cc2ccccc2)CC1)c1cc(-c2cccnc2)nc2ccc(Cl)cc12 | 1.18
* OC(CNC1CCCC1)Cn1c2ccccc2c2ccccc21 (configuration not stated) | 0.286
* Cc1ccc(Nc2nc(-c3ccccn3)cs2)cc1 | 0.173
* COc1ccc(N2CCN(C(CNC(=O)CC(C)(C)C)c3ccc4c(c3)OCO4)CC2)cc1 (configuration not stated) | 0.826
* COc1ccccc1CNC(=O)CCn1c(=O)[nH]c2ccsc2c1=O | 0.805
* O=C1c2ccccc2C2=Nc3ccccc3SC(c3cccc(F)c3)C12 (configuration not stated) | 0.75
* CC(C)CNC(=O)c1c(N)n(CCc2ccccc2F)c2nc3ccccc3nc12 | 0.687
* Cc1ccc(Nc2nc(N)c3ccccc3n2)cc1Cl | 0.753
* O=C(Nc1ccc(-c2nc3cc4ccccc4cc3[nH]2)cc1)c1cccc(Br)c1 | 0.873
* O=C1c2ccccc2-c2nnc(-c3ccc(Br)cc3)cc21 | 0.873
* COc1cc2c3cc1Oc1c(OC)c(OC)cc4c1C(Cc1ccc(O)c(c1)Oc1ccc(cc1)CC3N(C)CC2)N(C)CC4 (configuration not stated) | 0.528
* CC1CCN(Cc2c(O)ccc3cc(-c4nc5ccccc5s4)c(=O)oc23)CC1 | 0.864
* CCN1CCN(c2c(C(=O)c3ccccc3)cnc3cc(OC)c(OC)cc23)CC1 | 1
* CN(C)CCCNc1c2ccccc2nc2ccccc12 | 0.201
* O=C(CCl)NCCOc1ccc(Cl)cc1Cl | 0.769

---

system: Plasmodium falciparum NF54 gametocytes; assay: viability index relative to DMSO control (fraction); higher = less gametocyte killing; settings: gametocyte stage: Stage II viability index; 12.5 µM; incubation time: 72 h
recorded_endpoint: viability index

* OC(CNCC1CCCO1)Cn1c2ccc(Cl)cc2c2cc(Cl)ccc21 (stereo not drawn) | 0.0647
* CCc1ccc(Nc2cc(C)c3ccc(O)cc3n2)cc1 | 0.256
* COc1ccc(C=C2SC(=N)N(c3ccccc3OC)C2=O)cc1 | 0.916
